Origin of values: the Human Domainome abundance scans (Beltran et al. 2025)

B1: Gamma-crystallin C, residues 4 to 79; numbered along this chain, P07315 (parent)
chain: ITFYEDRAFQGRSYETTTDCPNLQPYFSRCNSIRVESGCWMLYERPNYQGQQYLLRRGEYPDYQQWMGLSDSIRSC

variants of: B1; assay: abundance fitness (aPCA) (normalised: wild type 0, dead -1); higher = more abundant; growth selection in yeast, the domain comes from the species named; settings: Homo sapiens
So basically: abundance fitness at -0.09 or higher? That is true (1). Lower than -0.09? That is false (0).

VARIANT CODE	CLASS ASSIGNMENT
Q51L	true (1)
N47S	false (0)
W66K	true (1)
Q52I	false (0)
Q10W	false (0)
V35R	false (0)
F27H	false (0)
R34F	false (0)
R56P	false (0)
G50L	false (0)
S13I	true (1)
Q65N	true (1)
W40G	false (0)
S72Y	true (1)
Y14G	false (0)
Y63Q	false (0)
Q52R	true (1)
I73A	true (1)
M67V	true (1)
E5R	true (1)
I33A	true (1)
D19W	true (1)
E44Q	true (1)
L23M	true (1)
M41H	false (0)
N22Y	true (1)
Y53K	true (1)
S28W	false (0)
D71V	true (1)
I33K	false (0)
L55I	true (1)
T18R	false (0)
C39N	false (0)
R56W	true (1)
Y43T	false (0)
S28V	true (1)
Q65S	true (1)
Y43H	true (1)
I73T	true (1)
W66F	true (1)
W66M	false (0)
T18N	true (1)
M67P	true (1)
I73C	true (1)
I73Q	false (0)
